target_or_system: purified human Hsp90
assay_text: Binding Assay: fluorescence polarization with BODIPY-labeled geldanamycin
run_parameters: BODIPY-GM 10 nM, Hsp90 30 nM
quantity: IC50 (nM)
Unit nM implied. Number only.

For record Nc1ncnc2c1nc(Sc1ccc3c(c1)OCO3)n2CCc1ccc(F)cc1 the listed IC50 is 600

For record COc1ccc(OC)c(Sc2nc3c(N)ncnc3n2CCc2ccc(F)cc2Cl)c1 the listed IC50 is 90

For record CC(C)C[C@H](N)C(=O)N1CCCC(CCn2c(Sc3cc4c(cc3Br)OCO4)nc3c(N)ncnc32)C1 (stereo partly shown) the listed IC50 is 210

For record COc1ccc(OC)c(Sc2nc3c(N)ncnc3n2CCN2CCN(C)CC2)c1 the listed IC50 is 2000

For record COc1ccc(OC)c(Sc2nc3c(N)ncnc3n2CCC2CCN(C(C)=O)CC2)c1 the listed IC50 is 1500

For record COc1ccc(OC)c(Sc2nc3c(N)ncnc3n2CCc2cccc(F)c2)c1 the listed IC50 is 800

For record Nc1ncnc2c1nc(Sc1cc3c(cc1Br)OCO3)n2CCc1c(F)c(F)c(F)c(F)c1F the listed IC50 is 500

For record Nc1ncnc2c1nc(Sc1cc3c(cc1Br)OCCO3)n2CCc1ccccc1Cl the listed IC50 is 500

For record CC(C)(C)OC(=O)N1CCC(CCn2c(Sc3cc4c(cc3Br)OCO4)nc3c(N)ncnc32)C(C)(C)C1 (stereo not shown) the listed IC50 is 400

For record COc1cc(CCn2c(Sc3cc4c(cc3Br)OCO4)nc3c(N)ncnc32)cc(OC)c1OC the listed IC50 is 200

For record COc1cc(Sc2nc3c(N)ncnc3n2CCc2ccccc2)cc(OC)c1OC the listed IC50 is 8100

For record COc1ccc(OC)c(Sc2nc3c(N)ncnc3n2CCC2CCN(C=O)CC2)c1 the listed IC50 is 450

For record COc1ccc(OC)c(Sc2nc3c(N)ncnc3n2CCc2cccc([N+](=O)[O-])c2)c1 the listed IC50 is 500

For record COc1ccc(OC)c(Sc2nc3c(N)ncnc3n2CC(c2ccccc2)C(C)C)c1 (stereo not shown) the listed IC50 is 550

For record Nc1ncnc2c1nc(Sc1cc3c(cc1Br)OCO3)n2CCC1CCN(C(=O)OCc2ccccc2)CC1 the listed IC50 is 130

For record Nc1ncnc2c1nc(Sc1cc3c(cc1Br)OCO3)n2CCc1ccc(O)cc1 the listed IC50 is 400

For record COc1ccc(OC)c(Sc2nc3c(N)ncnc3n2CCc2ccccc2OC)c1 the listed IC50 is 360

For record COc1ccc(OC)c(Sc2nc3c(N)ncnc3n2CCc2c(Cl)cccc2Cl)c1 the listed IC50 is 75

For record COc1cccc(CCn2c(Sc3cc4c(cc3Br)OCO4)nc3c(N)ncnc32)c1 the listed IC50 is 180

For record COc1ccc(C)cc1Sc1nc2c(N)ncnc2n1CCc1ccccc1Cl the listed IC50 is 2800

For record COc1ccc(OC)c(Sc2nc3c(N)ncnc3n2CCn2cccc2)c1 the listed IC50 is 500

For record C=Cn1c(Sc2cc3c(cc2Br)OCO3)nc2c(N)ncnc21 the listed IC50 is 525

For record CC(C)(C)C(=O)N1CCCC(CCn2c(Sc3cc4c(cc3Br)OCO4)nc3c(N)ncnc32)C1 (stereo not shown) the listed IC50 is 200

For record CC(C)(C)C(=O)N1CCN(CCn2c(Sc3cc4c(cc3Br)OCO4)nc3c(N)ncnc32)CC1 the listed IC50 is 1500
